Test: APR_HepG2_CellLoss_24hr: Apredica 24-hour HepG2 Assay for Cell Loss (AID 2282908)
Details: high-content imaging
Activity calls are given as the source filed them. How the source made its calls: active means hit-call score of the fitted dose curve at least 0.9, where 1 is the maximum; inactive means score below 0.9.
Outcomes: active, inactive

{"columns": ["molecule", "cat"],
 "data": [
  ["O=NO", "inactive"],
  ["Cc1cc(SC2=C(O)C[C@@](CCc3ccc(N)cc3)(C(C)C)OC2=O)c(C(C)(C)C)cc1CO", "inactive"],
  ["CN(C)CCCN(C)CCCN(C)C", "inactive"],
  ["CCCCCCCCCC[N+](C)(C)[O-]", "active"],
  ["CC(C)OC(=O)C(C)(C)Oc1ccc(C(=O)c2ccc(Cl)cc2)cc1", "inactive"],
  ["Cc1cc(Cc2ccc(N)c(C)c2)ccc1N", "inactive"],
  ["CCCCOC(=O)CCCCC(=O)OCCCC", "inactive"],
  ["O=C1OC(c2ccc(O)cc2)(c2ccc(O)cc2)c2ccccc21", "active"],
  ["Oc1ccc(O)cc1", "inactive"],
  ["Nc1nc(=S)c2[nH]cnc2[nH]1", "active"],
  ["O=C(NS(=O)(=O)/C=C/c1cccs1)c1ccc(F)cc1Br", "inactive"],
  ["CC(=O)OC1CC(C)OC(C)O1 (stereo not given)", "inactive"],
  ["CCC(C)N(C)C(=O)c1cc2ccccc2c(-c2ccccc2Cl)n1 (stereo not given)", "active"],
  ["CCCCCCC(CCCCCCCCCCC(=O)OCC(COC(C)=O)OC(C)=O)OC(C)=O (stereo not given)", "inactive"],
  ["CN(C)C(=O)NC1(c2ccccc2)CCN(CC[C@@]2(c3ccc(F)c(F)c3)CN(C(=O)c3ccccc3)CCO2)CC1", "inactive"]
]}

====

Assay: Tanguay_ZF_120hpf_MORT_legacy: (Legacy) Oregon State University Tanguay Lab 120 Hour Post-fertilization zebrafish Assay for Mortality (AID 2283633)
Active and inactive are the calls of the source. How the source made its calls: active means hit-call score of the fitted dose curve at least 0.9, where 1 is the maximum; inconclusive means response in the unintended direction; inactive means score below 0.9.
Labels: active, inactive

{"columns": ["compound", "cat"],
 "data": [
  ["CC(C)(C)c1ccccc1", "active"],
  ["CN(C)C(=O)NC1(c2ccccc2)CCN(CC[C@@]2(c3ccc(F)c(F)c3)CN(C(=O)c3ccccc3)CCO2)CC1", "inactive"],
  ["Nc1nc(=S)c2[nH]cnc2[nH]1", "inactive"],
  ["NC=O", "inactive"],
  ["O=C(NS(=O)(=O)/C=C/c1cccs1)c1ccc(F)cc1Br", "inactive"],
  ["CC(=O)OCC(COC(C)=O)OC(C)=O", "inactive"],
  ["O=C(O)c1[nH]n(-c2ccc(S(=O)(=O)O)cc2)c(=O)c1N=Nc1ccc(S(=O)(=O)O)cc1", "inactive"],
  ["CS(=O)(=O)c1ccc([C@@H](C[C@H]2CCC(=O)C2)C(=O)Nc2cnccn2)cc1Cl", "inactive"],
  ["CC(N)=O", "inactive"],
  ["Oc1ccccc1O", "inactive"],
  ["CSc1ccc(Oc2ccc(S(N)(=O)=O)cc2CN(C)C)cc1C", "inactive"],
  ["NC1CCCCC1", "inactive"],
  ["OCC(O)CO", "inactive"],
  ["Cc1c(C)c2c(c(C)c1O)CCC(C)(COc1ccc(CC3SC(=O)NC3=O)cc1)O2 (centres undefined)", "inactive"],
  ["Cc1cc(Cc2ccc(N)c(C)c2)ccc1N", "inactive"],
  ["O=C(Oc1ccccc1)c1cccc(C(=O)Oc2ccccc2)c1", "inactive"],
  ["COC(=O)CCC(=O)OC", "inactive"],
  ["Cn1cnc2c1c(=O)[nH]c(=O)n2C", "inactive"],
  ["Cc1ccc(-c2cc(C(F)(F)F)nn2-c2ccc(S(N)(=O)=O)cc2)cc1", "inactive"],
  ["C/C=C/C=C/C(=O)O", "inactive"],
  ["COC(=O)[C@H]1[C@H]2C[C@@H]3c4[nH]c5cc(OC)ccc5c4CCN3C[C@H]2C[C@@H](OC(=O)c2cc(OC)c(OC)c(OC)c2)[C@@H]1OC", "inactive"],
  ["CCCC[C@H]1CN(CC2CCOCC2)C(=O)OC12CCN(C1(C)CCN(C(=O)c3c(C)ncnc3C)CC1)CC2", "inactive"],
  ["Oc1ccc(O)cc1", "active"],
  ["CC(=O)OC1CC(C)OC(C)O1 (centres undefined)", "inactive"]
]}

====

Read-out: urokinase plasminogen activator (uPA), PLAU (gene 5328)
Test: BSK_BE3C_uPA: BioMAP Diversity Plus: BE3C Assay for urokinase plasminogen activator (uPA) Biomarker Activity (AID 2283038)
Conditions: primary human bronchial epithelial cells; actives raise or lower the signal
The source made the active and inactive calls. How the source made its calls: active means hit-call score of the fitted dose curve at least 0.9, where 1 is the maximum; inactive means score below 0.9.
Labels: y for active, n for inactive

{"columns": ["compound", "cat"],
 "data": [
  ["CCCCc1nc2cccnc2n1Cc1ccc(-c2ccccc2-c2nnn[nH]2)cc1", "n"],
  ["CN(C)C(=O)NC1(c2ccccc2)CCN(CC[C@@]2(c3ccc(F)c(F)c3)CN(C(=O)c3ccccc3)CCO2)CC1", "n"],
  ["CC(=O)O[C@]1(C(C)=O)CC[C@H]2[C@@H]3C=C(Cl)C4=CC(=O)[C@@H]5C[C@@H]5[C@]4(C)[C@H]3CC[C@@]21C", "y"],
  ["Nc1nc(=S)c2[nH]cnc2[nH]1", "n"],
  ["CCN(CC)CCOc1ccc(C(=C(Cl)c2ccccc2)c2ccccc2)cc1", "y"],
  ["O=[Si]=O", "n"],
  ["CC(C)(O)c1ccc(CNC(=O)c2cccnc2Oc2ccc(F)cc2)cc1", "n"],
  ["NCCOCCOCCN", "n"],
  ["Cc1ccc(C(C)(C)C)c(O)c1", "n"],
  ["CN(C)CCCN1c2ccccc2Sc2ccc(Cl)cc21", "y"],
  ["C/C=C/c1ccc(OC)cc1", "n"],
  ["COc1ccc(OC(F)(F)F)cc1CN[C@H]1CCCN[C@H]1c1ccccc1", "y"],
  ["O=C1NC(=O)C(c2ccccc2)(c2ccccc2)N1", "n"],
  ["CCCCC(CC)COC(=O)CCCCCCCC(=O)OCC(CC)CCCC (stereo unspecified)", "n"],
  ["Oc1ccc(O)cc1", "y"],
  ["CC(C)c1cccc(C(C)C)c1NC(=O)NS(=O)(=O)c1cc(C(C)(C)O)co1", "n"],
  ["Cc1cn([C@H]2C=C[C@@H](CO)O2)c(=O)[nH]c1=O", "n"],
  ["CC(=O)S[C@H](C(=O)N[C@H]1Cc2ccccc2[C@H]2CCC[C@@H](C(=O)O)N2C1=O)C(C)C", "n"],
  ["CC(C)(C)c1ccccc1", "n"],
  ["OCC(CO)n1cnc(-c2ccc(F)cc2)c1-c1ccnc(Oc2ccccc2)n1", "y"],
  ["CC1=C(C)S(=O)(=O)CCS1(=O)=O", "n"],
  ["CCCCC(CC)CO (stereo unspecified)", "n"],
  ["NC=O", "n"],
  ["O=C(Oc1ccccc1)c1cccc(C(=O)Oc2ccccc2)c1", "n"],
  ["C#CC(O)C(CC)CCCC (stereo unspecified)", "n"],
  ["COC(=O)CCC(=O)OC", "n"]
]}

====

Read-out: serum amyloid A (SAA), SAA1 (gene 6288)
Assay: BSK_CASM3C_SAA: BioMAP Diversity Plus: CASM3C Assay for serum amyloid A (SAA) Biomarker Activity (AID 2283049);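 further: SAA protein level quantified by ELISA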
Conditions: primary human coronary artery smooth muscle cells; actives raise or lower the signal
Activity calls are given as the source filed them. Rule for the calls: active = hit-call score of the fitted dose curve at least 0.9, where 1 is the maximum; inactive = score below 0.9.
Outcome codes: true (active), false (inactive)

{"columns": ["compound", "cat"],
 "data": [
  ["Nc1nc(Cl)nc2c1ncn2[C@H]1C[C@H](O)[C@@H](CO)O1", "false"],
  ["COC(=O)[C@H]1[C@H]2C[C@@H]3c4[nH]c5cc(OC)ccc5c4CCN3C[C@H]2C[C@@H](OC(=O)c2cc(OC)c(OC)c(OC)c2)[C@@H]1OC", "false"],
  ["CCCCC(CC)COP(=O)(OCC(CC)CCCC)OCC(CC)CCCC (stereo not drawn)", "false"],
  ["CC(N)=O", "false"],
  ["O=Cc1ccccc1C=O", "false"],
  ["COC(=O)CCCC(=O)OC", "false"],
  ["CCN(CC)CCOc1ccc(C(=C(Cl)c2ccccc2)c2ccccc2)cc1", "true"],
  ["CC(=O)O", "false"],
  ["CCC(C)N(C)C(=O)c1cc2ccccc2c(-c2ccccc2Cl)n1 (stereo not drawn)", "false"],
  ["CO[C@@H]1COCC[C@@H]1N[C@@H]1CC[C@@](C(=O)N2CCc3ncc(C(F)(F)F)cc3C2)(C(C)C)C1", "false"],
  ["O=C1CCCCC1", "false"],
  ["CC(=O)OC1CC(C)OC(C)O1 (stereo not drawn)", "false"],
  ["NC=O", "false"],
  ["OCC(CO)n1cnc(-c2ccc(F)cc2)c1-c1ccnc(Oc2ccccc2)n1", "false"],
  ["CC(C)NCC(O)c1ccc(O)c(O)c1 (stereo not drawn)", "false"],
  ["O=C1O[C@H]([C@H](O)CO)C(O)=C1O", "false"],
  ["O=C1OC(c2ccc(O)cc2)(c2ccc(O)cc2)c2ccccc21", "false"],
  ["CCCCCCC(C=O)=Cc1ccccc1", "false"],
  ["CCOCCOCCO", "false"],
  ["CC(C)(O)c1ccc(CNC(=O)c2cccnc2Oc2ccc(F)cc2)cc1", "false"],
  ["CCc1nc(N)nc(N)c1-c1ccc(Cl)cc1", "false"],
  ["O=NO", "false"],
  ["O=C(NS(=O)(=O)/C=C/c1cccs1)c1ccc(F)cc1Br", "false"],
  ["C/C=C/c1ccc(OC)cc1", "false"],
  ["CN(C)CCCN(C)CCCN(C)C", "false"],
  ["CCCCC(CC)COC(=O)CCCCCCCC(=O)OCC(CC)CCCC (stereo not drawn)", "false"],
  ["COc1ccc(OC(F)(F)F)cc1CN[C@H]1CCCN[C@H]1c1ccccc1", "false"],
  ["O=C1NC(=O)C(c2ccccc2)(c2ccccc2)N1", "false"],
  ["CCCC[C@H]1CN(CC2CCOCC2)C(=O)OC12CCN(C1(C)CCN(C(=O)c3c(C)ncnc3C)CC1)CC2", "false"],
  ["C#CC(O)C(CC)CCCC (stereo not drawn)", "false"],
  ["CC(=O)[C@@]1(O)CC[C@H]2[C@@H]3CCC4=CC(=O)CC[C@]4(C)[C@H]3CC[C@@]21C", "false"],
  ["CC1(C)C(=O)NC(=O)N1CO", "false"],
  ["C=CCCCCCCCCCCCC", "false"],
  ["Cc1ccc(-c2cc(C(F)(F)F)nn2-c2ccc(S(N)(=O)=O)cc2)cc1", "true"],
  ["CCCCCCCCCC[N+](C)(C)[O-]", "false"],
  ["Cc1occc(=O)c1O", "false"],
  ["CC(COCC(C)OC(=O)c1ccccc1)OC(=O)c1ccccc1 (stereo not drawn)", "false"],
  ["CN(C)CCCN1c2ccccc2Sc2ccc(Cl)cc21", "false"]
]}

FYI, the data here is from PubChem BioAssay (EPA / NIEHS).
